Data provenance is PubChem BioAssay (NCI).

# Tested on: SW-620 colon
# Assay Procedure: NCI-60 one-dose screen, 48 h
# Stated Conditions: 10 µM unless noted
Compounds without any hit were thinned out: in the full panel of roughly 83,000, 20% have a hit. Active and inactive are the calls of the source. How the source made its calls: active means growth percent below 10; inactive means the rest.
Log the outcome using a class from active, inactive

Look over these answered cases.
[[record]]
sample_smiles = "COc1ccc2c(c1)[nH]c(=O)c1c3cccc(F)c3cn21"
tested_system = "SW-620 colon"
label_class = "inactive"

[[record]]
sample_smiles = "CCCCCCCCCCCCCCCCNC(=O)OC(C)C"
tested_system = "SW-620 colon"
label_class = "inactive"


Prompt: So what was the verdict on `C=C1C(=O)O[C@H]2[C@H]1CC/C(Cn1cc(CNC(=O)c3cc4ccccc4[nH]3)nn1)=C\CC[C@@]1(C)O[C@@H]21` in this test?
Completion: active

Prompt: Given `O=C1NN(C(=O)c2ccc(Cl)cc2)C(c2ccccc2)=N/C1=C\c1ccc(F)cc1` , state the outcome it received in this test.
Completion: inactive

Prompt: Would you mind telling me which call this test gave `CCNc1nc(S(=O)(=O)CC)nc2ccccc12` ?
Completion: inactive

###

# Test system: ACHN renal
# Assay Procedure: NCI-60 one-dose screen, 48 h
# Stated Conditions: 10 µM unless noted
About 83,000 compounds went through this panel and 20% of them were active in at least one assay; those are over-represented in the sample as a whole. Calls of active or inactive are those of the source. Rule for the calls: active = growth percent below 10; inactive = the rest.
Outcome field: choose from YES for active, NO for inactive

Solved entries:
[[record]]
compound = "COc1cc2c(cc1OCCCCCn1c3ccccc3c3ccccc31)N=C[C@@H]1CCCN1C2=O"
label_class = "YES"

[[record]]
compound = "CCCCCCCCCCCC(=O)NCCC[N+](C)(C)CC(=O)[O-]"
label_class = "NO"

[[record]]
compound = "COc1cc(-c2nn(-c3cccc(NC(=O)Nc4cccc(C(F)(F)F)c4)c3)cc2-c2ccncc2)ccc1Cl"
label_class = "YES"

[[record]]
compound = "C=CCSc1n[nH]c(-c2cccs2)n1"
label_class = "NO"

[[record]]
compound = "COc1cc(/C=N\\NC(=O)CN2CCN(c3cc4c(cc3F)c(=O)c(C(=O)N/N=C/c3cc(OC)c(OC)c(OC)c3)cn4C3CC3)CC2)cc(OC)c1OC"
label_class = "NO"

[[record]]
compound = "O=C(NS(=O)(=O)c1ccccc1)n1cc(-c2ccncc2)c(-c2ccc(Cl)c(O)c2)n1"
label_class = "NO"

[[record]]
compound = "CN(C[C@H]1Cc2c(cccc2N2CCN(c3ncccn3)CC2)CN1)[C@H]1CCCc2cccnc21"
label_class = "NO"

[[record]]
compound = "Cc1ccc(/C=C2\\CN(C(=O)CCN3CCC(=NO)CC3)C/C(=C\\c3ccc(C)cc3)C2=O)cc1"
label_class = "YES"

[[record]]
compound = "C=C[C@@H]1C[C@@H]2Cc3c(C)cc(C)cc3N1O2"
label_class = "NO"

[[record]]
compound = "C=C1CCC2C(C)(CO)C(O)CCC2(C)C1C/C=C1/C(=O)OCC1Oc1ccccc1C (stereo unspecified)"
label_class = "NO"


Prompt: Hey, what did the test say about `COc1ccc(-c2ccc(-c3ccc(C(=N)N)cn3)s2)cc1OC` ?
Completion: NO

Prompt: Outcome? `O=[N+]([O-])c1ccc(Sc2ncccn2)c([N+](=O)[O-])c1`
Completion: NO

Prompt: Lab log entry: `COc1cccc(/C=C/C(=O)Nc2cc(OC)c3c(c2)OCO3)c1` — outcome as called in the assay?
Completion: NO

Prompt: Check the results log: what was the call for `COc1ccc2cc(-c3ccc(-c4ccc(C(=N)N)cc4)s3)ccc2c1` ?
Completion: NO

Prompt: What classification did `Brc1cccc(-c2cc(-c3ccc4c(c3)OCCCO4)[nH]n2)c1` end up with in this test?
Completion: NO

Prompt: Short answer needed: outcome of this test for `OCCCCCCNc1ncnc2cc(Cl)ccc12` ?
Completion: NO

Prompt: Hello, I am checking results. What call was entered for CCCCC(CC)OC(=O)C(Br)CC (stereo unspecified) ?
Completion: NO

Prompt: I'd appreciate the recorded outcome for `COc1ccc(/C=C/c2c(C(C)=O)c(C)nc3ccccc23)cc1` from this test.
Completion: NO

Prompt: What did the test return for `O=C(O)/C=C/C(=O)c1ccc(Cl)cc1` ?
Completion: NO

Prompt: Dear all, I need the recorded test outcome for `N#Cc1c(Nc2ccccc2)nc2n(c1=O)-c1ccccc1Sc1ccccc1-2` , thank you.
Completion: NO

Prompt: Per the records of this test, what outcome belongs to `CCN(CC)c1ccc(CNc2ccnc3ccccc23)cc1` ?
Completion: NO

###

# Tested on: T-47D breast
# Assay Procedure: NCI-60 one-dose screen, 48 h (100 = growth as untreated, 0 = no growth, -100 = all killed)
# Stated Conditions: 10 µM unless noted
# Procedure: Growth inhibition of the T-47D human tumor cell line is measured as a screen for anti-cancer activity. Cells are grown in 96 well plates and exposed to the test compound for 48 hours. Compounds are tested at a single concentration, which is 10^-5 M for most compounds. The reported endpoint is percent growth (GI% or GIPRCNT), where numbers from 0 - 100% represent growth inhibition, and numbers from -100% - 0 represent cell death. For example, a value of 40 represents 60% growth inhibition. […]
Compounds without any hit were thinned out: in the full panel of roughly 83,000, 20% have a hit.
Below is a list of entries, each paired with its recorded growth value.
Write down the numeric answer in % and omit the unit.

Below, each entry is followed by its recorded growth result.
[[record]]
compound = "CN1CCN(Cc2ccc(NC(=O)c3cncc(C#Cc4cnc(N)c5ccncc45)c3)cc2C(F)(F)F)CC1"
tested_system = "T-47D breast"
unit_string = "%"
reported_measurement = 43.2

[[record]]
compound = "COc1ccc2[nH]c(=O)c3c4ccccc4cn3c2c1"
tested_system = "T-47D breast"
unit_string = "%"
reported_measurement = 44.6

[[record]]
compound = "CC1CN(c2oc(-c3ccccc3)nc2C#N)CC(C)O1 (stereo unspecified)"
tested_system = "T-47D breast"
unit_string = "%"
reported_measurement = 94.7

[[record]]
compound = "COc1cc(NCCCCCN)c2ncccc2c1"
tested_system = "T-47D breast"
unit_string = "%"
reported_measurement = 96.2


Reported growth ( CCN(CC)CCCC(C)Nc1c2ccc(Cl)cc2nc2cc(OC)c(OC)cc12 (stereo unspecified) ) = 61.9

###

# Test system: CAKI-1 renal
# Assay Procedure: NCI-60 one-dose screen, 48 h (100 = growth as untreated, 0 = no growth, -100 = all killed)
# Stated Conditions: 10 µM unless noted
Compounds without any hit were thinned out: in the full panel of roughly 83,000, 20% have a hit.
Known growth of a selection of compounds
Please reply with the bare figure in % and do not write the unit itself.

Example cases with answers are listed next.
[[record]]
sample_smiles = "COc1cc(Nc2ncccc2C(=O)NCc2cn(Cc3cccc(Oc4ccccc4)c3)nn2)cc(OC)c1"
measured_attribute = "growth"
reported_measurement = 36.9

[[record]]
sample_smiles = "Cc1cc(N)n(S(=O)(=O)c2oc(-c3ccccc3)nc2C#N)n1"
measured_attribute = "growth"
reported_measurement = -49.4

[[record]]
sample_smiles = "ClC(Cl)c1nc(-c2cccnc2)n2nc(-c3ccccc3)cc2n1"
measured_attribute = "growth"
reported_measurement = -2.31

[[record]]
sample_smiles = "NC(=O)CCCN1C/C(=C\\c2ccccc2)C(=O)c2ccccc21"
measured_attribute = "growth"
reported_measurement = 90.6


For reference, reported growth for `CCOC(=O)CC(=O)OC` stands at 91.2

According to the records, this compound `FC(F)(F)c1ccccc1-c1cn2c(ccc3ccccc32)n1` displays growth of 58.7

###

# Tested on: SK-MEL-5 melanoma
# Assay Procedure: NCI-60 one-dose screen, 48 h (100 = growth as untreated, 0 = no growth, -100 = all killed)
# Stated Conditions: 10 µM unless noted
This is part of a sample that, as a whole, favours compounds with a hit. Of some 83,000 tested, about 20% had one in any assay.
Measured Attribute: growth (%)
Field format: number, assumed %, no unit text.

Take a look at these entries with their results.
[[record]]
molecule = "O=C(N/N=C/C=C\\c1ccccc1)C(=O)N/N=C/C=C/c1ccccc1"
reported_measurement = 110

[[record]]
molecule = "CN(C)CCCC(C#N)c1ccccc1 (stereo unspecified)"
reported_measurement = 108

[[record]]
molecule = "C=C1C(=O)O[C@H]2[C@H]1CC/C(COC(=O)NCc1ccccc1OC)=C\\CC[C@@]1(C)O[C@@H]21"
reported_measurement = 92.8

[[record]]
molecule = "COc1ccc(-n2c(=O)sc3c(Cl)nc(C)nc32)c(OC)c1"
reported_measurement = 98.1

[[record]]
molecule = "C/C(=C\\c1ccc(OCC(=O)O)c(Cl)c1Cl)[N+](=O)[O-]"
reported_measurement = 109

[[record]]
molecule = "Cc1cc(C2(c3cc(C)c(O)cc3C)OS(=O)(=O)c3ccccc32)c(C)cc1O"
reported_measurement = 104

[[record]]
molecule = "N/C(=N\\C(N)=N\\c1nc2ccccc2s1)c1ccncc1"
reported_measurement = 59

[[record]]
molecule = "CCO/C=N/C1=C(C#N)C(c2ccc(Cl)cc2)c2c(c3ccc(C)cc3[nH]c2=O)O1 (stereo unspecified)"
reported_measurement = 87.1


Continue with the next molecule.
What the record says about `O=Nc1c(-c2cccc([N+](=O)[O-])c2)nc2ncccn12` : growth is 96.2
